Hey, just so you know, these numbers are from paper PMC10004090.

Can you tell me pIC50 for the items I'm about to list?
# System: Neuro-2a
# ASSAY COMMENT: MTT cytotoxicity test on Neuro-2a cells (healthy-cell control)
# Assay type: cell-based, mouse
# ASSAY CONDITIONS: Mus musculus, N2a; MTT, 72 h; healthy cells
Give bare numbers, as −log10 of the molar value.

Solved cases (4 shown):
COMPOUND STRUCTURE STRING	SYSTEM	pIC50
O=S(=O)(N/N=C/c1c[nH]c2ccc(Cl)cc12)c1ccccc1	Neuro-2a	5.19
CC(=O)n1cc(/C=N/NS(=O)(=O)c2ccccc2)c2ccccc21	Neuro-2a	4.44
CC(=O)n1cc(/C=N/NS(=O)(=O)c2ccc(C)cc2)c2ccccc21	Neuro-2a	4.08
COc1ccc2[nH]cc(/C=N/NS(=O)(=O)c3ccc(C)cc3)c2c1	Neuro-2a	5.40

// switching to the query compound
stdin: Provide one value: measured pIC50 of COc1ccc2[nH]cc(/C=N\NS(=O)(=O)c3ccccc3)c2c1
stdout: 5.28

====

I'd be grateful if you could share measured IC50 for these entries.
# System: MCF-7
# ASSAY COMMENT: MTT cytotoxicity test on MCF-7 cell line
# Format: cell-based, human
# ASSAY CONDITIONS: Homo sapiens, MCF7, 72 h, MTT, 72 h

Worked cases, IC50 given:
MOLECULE	IC50
O=S(=O)(N/N=C/c1c[nH]c2ccc(Cl)cc12)c1ccccc1 [Compound 1e]	< 1 µM
CC(=O)n1cc(/C=N/NS(=O)(=O)c2ccccc2)c2ccccc21 [Compound 1c]	< 1 µM
COc1ccc2[nH]cc(/C=N/NS(=O)(=O)c3ccc(C)cc3)c2c1 [Compound 1b]	< 1 µM
COc1ccc2[nH]cc(/C=N\NS(=O)(=O)c3ccccc3)c2c1 [Compound 1a]	< 1 µM

Then this molecule:
stdin: Return reported IC50 for target or system MCF-7, item CC(=O)n1cc(/C=N/NS(=O)(=O)c2ccc(C)cc2)c2ccccc21 [Compound 1d] .
stdout: 1.8 µM

====

# System: MDA-MB-231
# ASSAY COMMENT: MTT cytotoxicity test on MDA-MB-231 cell line
# Type: cell-based, human
# ASSAY CONDITIONS: MTT, 72 h
MEASURED PARAMETER: IC50 (µM)
Answers are plain numbers, in µM.

COMPOUND	MEASURED PARAMETER	DATA VALUE
O=S(=O)(N/N=C/c1c[nH]c2ccc(Cl)cc12)c1ccccc1	IC50	0.9

Okay, now this compound:
stdin: Note down IC50 recorded for N.N.[Cl][Pt][Cl] [Cisplatin, reference compound]
stdout: 63.4

====

# System: MDA-MB-231
# ASSAY COMMENT: MTT cytotoxicity test on MDA-MB-231 cell line
# Type: cell-based, human
# ASSAY CONDITIONS: Homo sapiens, MDA-MB-231, 72 h, MTT, 72 h
MEASURED PARAMETER: IC50 (µM)
One number for each entry, in µM.

Answered cases to consult:
MOLECULE	SYSTEM	IC50 / µM
CC(=O)n1cc(/C=N/NS(=O)(=O)c2ccccc2)c2ccccc21 [Compound 1c]	MDA-MB-231	19.2
COc1ccc2[nH]cc(/C=N\NS(=O)(=O)c3ccccc3)c2c1 [Compound 1a]	MDA-MB-231	3.1
CC(=O)n1cc(/C=N/NS(=O)(=O)c2ccc(C)cc2)c2ccccc21 [Compound 1d]	MDA-MB-231	65.1

Next molecule, IC50 to be filled in.
stdin: Tell us which IC50 value is on record for COc1ccc2[nH]cc(/C=N/NS(=O)(=O)c3ccc(C)cc3)c2c1 [Compound 1b]
stdout: 8.5
